# System: Mus musculus
# Assay protocol: Hypoglycemic activity in alloxan-induced diabetic albino mouse assessed as decrease in blood glucose level at 1 mmol/kg, po administered 6 days after alloxan injection measured after 2 to 4 hrs by automated glucose oxidase method relative to control
# Type: functional
# inhibition in vivo at 1000 µmol/kg listing for each entry below
Your answer is read as %, so omit the unit and give the number.

Completed entries (count: 5):
INSERT INTO results (smi, experimental_target, endpoint_value) VALUES
  ('Cc1cc(C(=O)O)nn1-c1ccc(S(=O)(=O)N2CC(=O)N(C3CCCCC3)C2=S)cc1', 'Mus musculus', 1),
  ('Cc1cc(C)n(-c2ccc(S(=O)(=O)N3CC(=O)N(Cc4ccccc4)C3=S)cc2)n1', 'Mus musculus', 1),
  ('CCCCN1C(=O)CN(S(=O)(=O)c2ccc(-n3nc(C)cc3C)cc2)C1=S', 'Mus musculus', 1),
  ('Cc1cc(C)n(-c2ccc(S(=O)(=O)N3CC(=O)N(C4CCCCC4)C3=S)cc2)n1', 'Mus musculus', 2),
  ('CCCCN1C(=O)CN(S(=O)(=O)c2ccc(-n3nc(C(=O)O)cc3C)cc2)C1=S', 'Mus musculus', 1);

# lookup: inhibition in vivo at 1000 µmol/kg of C=CCN1C(=O)CN(S(=O)(=O)c2ccc(-n3nc(C)cc3C)cc2)C1=S 4

Value lookup for inhibition in vivo at 1000 µmol/kg; key = N=C(N)NC(=N)NCCc1ccccc1 21

// returns reported inhibition in vivo at 1000 µmol/kg for input CCCN1C(=O)CN(S(=O)(=O)c2ccc(-n3nc(C(=O)O)cc3C)cc2)C1=S 1

Item Cc1cc(C)n(-c2ccc(S(=O)(=O)N3CC(=O)N(c4ccccc4)C3=S)cc2)n1 has what recorded inhibition in vivo at 1000 µmol/kg? 8
